B1: Histidine--tRNA ligase, cytoplasmic, residues 8 to 45; numbered along this chain, P12081 (parent)
chain: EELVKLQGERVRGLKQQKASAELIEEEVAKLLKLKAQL

variants of: B1; test: abundance fitness (aPCA) (normalised: wild type 0, dead -1); higher = more abundant; growth selection in yeast, the domain comes from the species named; details: Homo sapiens
Measurement kind: abundance fitness
Give your answer as a number; write no unit.

Here are 5 variants together with their reported answers.
Mutation list: E2T
Result: -0.591
--
Mutation list: V11Q
Result: 0.011
--
Mutation list: G8D
Result: 0.054
--
Mutation list: S20W
Result: -1.1
--
Mutation list: E26M
Result: 0.168

For L3Y the variant record lists abundance fitness as -0.549

For L6H the variant record lists abundance fitness as 0.051

For L6E the variant record lists abundance fitness as 0.128

For Q37D the variant record lists abundance fitness as 0.119

For E25T the variant record lists abundance fitness as -0.009

For V11S the variant record lists abundance fitness as -0.238

For L23P the variant record lists abundance fitness as -0.004

For A21D the variant record lists abundance fitness as 0.13

For A29M the variant record lists abundance fitness as -0.069

For L31F the variant record lists abundance fitness as -0.397

For Q17F the variant record lists abundance fitness as -0.396

For L14H the variant record lists abundance fitness as -0.397

For K35Q the variant record lists abundance fitness as 0.414

For E1F the variant record lists abundance fitness as -0.386

For G13A the variant record lists abundance fitness as 0.23

For L23T the variant record lists abundance fitness as 0.071

For V28D the variant record lists abundance fitness as 0.152

For Q37E the variant record lists abundance fitness as 0.28

For R12E the variant record lists abundance fitness as 0.231
